details: 273.15 K; 101.33 kPa; Liquid; Concentric cylinders viscometry
Attribute Measured: viscosity (mPa·s)

| Compound | Attribute Measured | Unit Annotation | Value Measured |
| --- | --- | --- | --- |
| CN(C)C=O [dimethylformamide] | viscosity | mPa·s | 1.14 |
| CCC(=O)[NH+](C)C.O=S(=O)([N-]S(=O)(=O)C(F)(F)F)C(F)(F)F | viscosity | mPa·s | 583.6 |
| CC(=O)N(C)C [N,N-dimethylethanamide] | viscosity | mPa·s | 1.41 |
| CCC(=O)N(C)C [N,N-dimethylpropionamide] | viscosity | mPa·s | 1.44 |

Cited source: the NIST ThermoML archive (doi:10.1021/acs.jced.6b00575)
